Ref: patent US20260297080A1

# tested-system: CDK1/Cyclin B1 (Homo sapiens)
# Sequence (P06493 whole entry): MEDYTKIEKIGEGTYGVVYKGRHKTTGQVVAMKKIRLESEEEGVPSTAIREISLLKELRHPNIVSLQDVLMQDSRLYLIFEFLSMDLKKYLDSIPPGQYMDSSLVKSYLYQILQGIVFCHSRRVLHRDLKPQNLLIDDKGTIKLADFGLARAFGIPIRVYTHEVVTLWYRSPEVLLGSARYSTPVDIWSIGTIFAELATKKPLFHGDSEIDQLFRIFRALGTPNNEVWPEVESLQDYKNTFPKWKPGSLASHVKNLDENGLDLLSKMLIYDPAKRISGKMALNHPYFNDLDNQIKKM
# Sequence (P14635 whole entry partner): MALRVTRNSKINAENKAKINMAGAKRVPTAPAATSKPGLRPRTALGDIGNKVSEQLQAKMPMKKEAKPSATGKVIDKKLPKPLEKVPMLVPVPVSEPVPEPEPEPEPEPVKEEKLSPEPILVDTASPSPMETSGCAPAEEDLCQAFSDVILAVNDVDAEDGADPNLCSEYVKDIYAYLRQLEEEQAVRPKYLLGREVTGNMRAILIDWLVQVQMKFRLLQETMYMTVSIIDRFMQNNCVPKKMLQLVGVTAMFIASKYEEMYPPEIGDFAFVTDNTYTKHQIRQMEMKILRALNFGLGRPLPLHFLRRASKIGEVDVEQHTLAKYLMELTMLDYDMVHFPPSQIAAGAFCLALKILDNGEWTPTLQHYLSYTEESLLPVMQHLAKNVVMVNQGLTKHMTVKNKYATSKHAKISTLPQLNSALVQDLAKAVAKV
# protocol-description: CDK1/Cyclin B1 Biochemical Assay (TR-FRET), 0.015 mM ATP
# experimental-context: 0.15 μM Rb (Ser780)-biotin substrate, pH7.0, 60 min preincubation, 120 min reaction, room temperature
What pIC50 was measured for each of the following?
# reply with the number alone; pIC50 is -log10 of concentration in mol/L

q: What measured pIC50 is associated with CC1(NC(=O)O[C@H]2CC[C@@H](c3cc(Nc4ccc5c(c4Cl)CNS5(=O)=O)n[nH]3)C2)CC1 (single isomer, unassigned) [Example 40b] on CDK1/Cyclin B1 (Homo sapiens)?
a: 6.74

q: What measured pIC50 is associated with O=C(NCCC(F)(F)F)O[C@@H]1CC[C@H](c2cc(Nc3ccc4c(c3)CS(=O)(=O)N4)n[nH]2)C1 (relative stereo) on CDK1/Cyclin B1 (Homo sapiens)?
a: 7.12

q: What measured pIC50 is associated with O=C(NCC1COC1)O[C@H]1CC[C@@H](c2cc(Nc3ccc4c(c3F)CNS4(=O)=O)n[nH]2)C1 (relative stereo) on CDK1/Cyclin B1 (Homo sapiens)?
a: 6.28

q: What measured pIC50 is associated with CC(C)NC(=O)O[C@H]1CC[C@@H](c2cc(Nc3ccc4c(c3F)CN(C3CCN(C)C(=O)C3)S4(=O)=O)n[nH]2)C1 (relative stereo) on CDK1/Cyclin B1 (Homo sapiens)?
a: 6.63

q: What measured pIC50 is associated with CC(C)NC(=O)O[C@H]1CC[C@@H](c2cc(Nc3cc4c(cc3F)NS(=O)(=O)C4)n[nH]2)C1 (single isomer, unassigned) [Example 292a] on CDK1/Cyclin B1 (Homo sapiens)?
a: 5.85

q: What measured pIC50 is associated with CC(C)NC(=O)O[C@H]1CC[C@@H](c2cc(Nc3ccc4c(c3F)S(=O)(=O)NC4)n[nH]2)C1 (single isomer, unassigned) [Example 186a] on CDK1/Cyclin B1 (Homo sapiens)?
a: 6.59

q: What measured pIC50 is associated with CC(C)NC(=O)O[C@H]1CC[C@@H](c2cc(Nc3ccc4c(c3F)CNS4(=O)=O)n[nH]2)C1 (single isomer, unassigned) [Example 9b] on CDK1/Cyclin B1 (Homo sapiens)?
a: 7.03

q: What measured pIC50 is associated with CC1(NC(=O)O[C@H]2CC[C@@H](c3cc(Nc4ccc5c(c4F)CS(=O)(=O)N5)n[nH]3)C2)CCOCC1 (relative stereo) on CDK1/Cyclin B1 (Homo sapiens)?
a: 7.00

q: What measured pIC50 is associated with CC1(NC(=O)O[C@H]2CC[C@@H](c3cc(Nc4ccc5c(c4F)CN(CCO)S5(=O)=O)n[nH]3)C2)CC1 (single isomer, unassigned) [Example 128a] on CDK1/Cyclin B1 (Homo sapiens)?
a: 6.72

q: What measured pIC50 is associated with CC(C)NC(=O)O[C@H]1CC[C@@H](c2cc(Nc3cc4c(cc3F)S(=O)(=O)NC4)n[nH]2)C1 (single isomer, unassigned) [Example 12a] on CDK1/Cyclin B1 (Homo sapiens)?
a: 6.04

q: What measured pIC50 is associated with CC(C)NC(=O)O[C@H]1CC[C@@H](c2cc(Nc3cc4c(cc3F)C(C)(C)NS4(=O)=O)n[nH]2)C1 (relative stereo) on CDK1/Cyclin B1 (Homo sapiens)?
a: 5.81
